- Tested on: 616215-338-R-J1-PDC complex spheroid growth, % test/control
- test.protocol: Anticancer human tumor 616215-338-R-J1-PDC patient-derived colon adenocarcinoma cell line growth inhibition [Asc]; active = viability on the fitted dose curve at most 10% of control; inactive = the rest
- condition.parameters: second compound 0.949 µM; first compound 1 µM
Just give me one of these, please: active, inactive

Before answering, review these 7 worked examples.
compound: CNC(C)C(=O)NC1CN(S(=O)(=O)c2cccc(S(=O)(=O)N3CCC4CCC(C(=O)NC(c5ccccc5)c5ccccc5)N4C(=O)C(NC(=O)C(C)NC)C3)c2)CCC2CCC(C(=O)NC(c3ccccc3)c3ccccc3)N2C1=O (stereo not drawn) + CCN1C(C(=O)NC23CCC(C(=O)O)(CC2)CC3)C(c2cccc(Cl)c2F)C2(C(=O)Nc3cc(Cl)ccc32)C12CCCCC2
answer.label: inactive

compound: COc1c(OCCCN2CCOCC2)ccc2c3n(c(=NC(=O)c4cnc(N)nc4)nc12)CCN3 + CCN1C(C(=O)NC23CCC(C(=O)O)(CC2)CC3)C(c2cccc(Cl)c2F)C2(C(=O)Nc3cc(Cl)ccc32)C12CCCCC2
answer.label: active

compound: O=C(c1ccc(F)c(F)c1Nc1ccc(I)cc1F)N1CC(O)([C@@H]2CCCCN2)C1 + CCN1C(C(=O)NC23CCC(C(=O)O)(CC2)CC3)C(c2cccc(Cl)c2F)C2(C(=O)Nc3cc(Cl)ccc32)C12CCCCC2
answer.label: active

compound: C=CC(=O)N1CCN(c2nc(=O)n(-c3c(C)ccnc3C(C)C)c3nc(-c4c(O)cccc4F)c(F)cc23)C(C)C1 (stereo not drawn) + CCN1C(C(=O)NC23CCC(C(=O)O)(CC2)CC3)C(c2cccc(Cl)c2F)C2(C(=O)Nc3cc(Cl)ccc32)C12CCCCC2
answer.label: inactive

compound: C=C(F)C(=O)N1CCN(c2nc(OCC3CCCN3C)nc3c2CCN(c2cccc4cccc(Cl)c24)C3)CC1CC#N (stereo not drawn) + CCN1C(C(=O)NC23CCC(C(=O)O)(CC2)CC3)C(c2cccc(Cl)c2F)C2(C(=O)Nc3cc(Cl)ccc32)C12CCCCC2
answer.label: inactive

compound: C#Cc1c(F)ccc2cc(O)cc(-c3ncc4c(N5CC6CCC(C5)N6)nc(OCC56CCCN5CC(F)C6)nc4c3F)c12 (stereo not drawn) + CCN1C(C(=O)NC23CCC(C(=O)O)(CC2)CC3)C(c2cccc(Cl)c2F)C2(C(=O)Nc3cc(Cl)ccc32)C12CCCCC2
answer.label: inactive

compound: O=C(c1cc(Cc2n[nH]c(=O)c3ccccc23)ccc1F)N1CCN(C(=O)C2CC2)CC1 + CCN1C(C(=O)NC23CCC(C(=O)O)(CC2)CC3)C(c2cccc(Cl)c2F)C2(C(=O)Nc3cc(Cl)ccc32)C12CCCCC2
answer.label: inactive

Lab note: next compound to report on.
*Q* Recorded call for CCN1CCN(Cc2ccc(Nc3ncc(F)c(-c4cc(F)c5nc(C)n(C(C)C)c5c4)n3)nc2)CC1 + CCN1C(C(=O)NC23CCC(C(=O)O)(CC2)CC3)C(c2cccc(Cl)c2F)C2(C(=O)Nc3cc(Cl)ccc32)C12CCCCC2 ?
*A* inactive

====

Can you tell me viability, T/C for the items I'm about to list?
- Test system: 616215-338-R-J1-PDC complex spheroid growth, % test/control
- test.protocol: Anticancer human tumor 616215-338-R-J1-PDC cell line growth inhibition [Asc];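 also: spheroids exposed to agents for seven days before readout; 100% = DMSO vehicle control viability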
- condition.parameters: second compound 0.1 µM; first compound 3.16 µM; stronger effect = lower value
Give bare numbers, in %.

compound: O=C(c1cc(Cc2n[nH]c(=O)c3ccccc23)ccc1F)N1CCN(C(=O)C2CC2)CC1 + CNC(C)C(=O)NC1CN(S(=O)(=O)c2cccc(S(=O)(=O)N3CCC4CCC(C(=O)NC(c5ccccc5)c5ccccc5)N4C(=O)C(NC(=O)C(C)NC)C3)c2)CCC2CCC(C(=O)NC(c3ccccc3)c3ccccc3)N2C1=O
viability, T/C [%]: 95.2
--
compound: C=C(F)C(=O)N1CCN(c2nc(OCC3CCCN3C)nc3c2CCN(c2cccc4cccc(Cl)c24)C3)CC1CC#N (stereo not drawn) + Cc1c(S(C)(=O)=O)c(-c2cc(F)cc(N3CCN(c4ccc(NS(=O)(=O)c5ccc(NC(CCN6CCC(C(=O)OCCCP(=O)(O)O)CC6)CSc6ccccc6)c(S(=O)(=O)C(F)(F)F)c5)cc4)CC3)c2)c(-c2ccc(Cl)cc2)n1C(C)C
viability, T/C [%]: 96.1

Kindly give each listed record's viability, T/C.
1. O=C(c1cc(Cc2n[nH]c(=O)c3ccccc23)ccc1F)N1CCN(C(=O)C2CC2)CC1 + Cc1c(S(C)(=O)=O)c(-c2cc(F)cc(N3CCN(c4ccc(NS(=O)(=O)c5ccc(NC(CCN6CCC(C(=O)OCCCP(=O)(O)O)CC6)CSc6ccccc6)c(S(=O)(=O)C(F)(F)F)c5)cc4)CC3)c2)c(-c2ccc(Cl)cc2)n1C(C)C
2. C=CC(=O)N1CCN(c2nc(=O)n(-c3c(C)ccnc3C(C)C)c3nc(-c4c(O)cccc4F)c(F)cc23)C(C)C1 (stereo not drawn) + Cc1c(S(C)(=O)=O)c(-c2cc(F)cc(N3CCN(c4ccc(NS(=O)(=O)c5ccc(NC(CCN6CCC(C(=O)OCCCP(=O)(O)O)CC6)CSc6ccccc6)c(S(=O)(=O)C(F)(F)F)c5)cc4)CC3)c2)c(-c2ccc(Cl)cc2)n1C(C)C
3. C#Cc1c(F)ccc2cc(O)cc(-c3ncc4c(N5CC6CCC(C5)N6)nc(OCC56CCCN5CC(F)C6)nc4c3F)c12 (stereo not drawn) + Cc1c(S(C)(=O)=O)c(-c2cc(F)cc(N3CCN(c4ccc(NS(=O)(=O)c5ccc(NC(CCN6CCC(C(=O)OCCCP(=O)(O)O)CC6)CSc6ccccc6)c(S(=O)(=O)C(F)(F)F)c5)cc4)CC3)c2)c(-c2ccc(Cl)cc2)n1C(C)C

*A*
[89.1, 87.5, 87.5]

Kindly give each listed record's viability, T/C.
1. C#Cc1c(F)ccc2cc(O)cc(-c3ncc4c(N5CC6CCC(C5)N6)nc(OCC56CCCN5CC(F)C6)nc4c3F)c12 (stereo not drawn) + CNC(C)C(=O)NC1CN(S(=O)(=O)c2cccc(S(=O)(=O)N3CCC4CCC(C(=O)NC(c5ccccc5)c5ccccc5)N4C(=O)C(NC(=O)C(C)NC)C3)c2)CCC2CCC(C(=O)NC(c3ccccc3)c3ccccc3)N2C1=O
2. C=CC(=O)N1CCN(c2nc(=O)n(-c3c(C)ccnc3C(C)C)c3nc(-c4c(O)cccc4F)c(F)cc23)C(C)C1 (stereo not drawn) + CNC(C)C(=O)NC1CN(S(=O)(=O)c2cccc(S(=O)(=O)N3CCC4CCC(C(=O)NC(c5ccccc5)c5ccccc5)N4C(=O)C(NC(=O)C(C)NC)C3)c2)CCC2CCC(C(=O)NC(c3ccccc3)c3ccccc3)N2C1=O

*A*
1. 35.7
2. 48.6

*Q* Request the reported viability, T/C associated with C=C(F)C(=O)N1CCN(c2nc(OCC3CCCN3C)nc3c2CCN(c2cccc4cccc(Cl)c24)C3)CC1CC#N (stereo not drawn) + CNC(C)C(=O)NC1CN(S(=O)(=O)c2cccc(S(=O)(=O)N3CCC4CCC(C(=O)NC(c5ccccc5)c5ccccc5)N4C(=O)C(NC(=O)C(C)NC)C3)c2)CCC2CCC(C(=O)NC(c3ccccc3)c3ccccc3)N2C1=O
*A* 0.85
